Tested on: Mono-Methyl Arginine in RKO cells
Experiment: RKO Methylation Assay (In Cell Western)
Format: cell-based
Settings: Homo sapiens, 72 hours, percent activation
Could you please report measured EC30 for the items listed next?

[in] With Mono-Methyl Arginine in RKO cells as the test system, provide measured EC30 for this compound: CN(CCN)Cc1c[nH]nc1-c1cncc(F)c1 [Compound 7]
[out] > 12 µM

[in] Consider the compound COc1ccc(-c2n[nH]cc2CN(C)CCN)cn1 [Compound 5] tested on Mono-Methyl Arginine in RKO cells; state its EC30.
[out] > 12 µM

[in] Recall the reported EC30 of CC(C)CN(C)c1ccc(-c2n[nH]cc2CN(C)CCN)cn1 [Compound 21] when tested on Mono-Methyl Arginine in RKO cells.
[out] 3.01 to 12 µM

[in] Give measured EC30 for COc1cc(-c2n[nH]cc2CN(C)CCN)c(Cl)cn1 [Compound 12] (Mono-Methyl Arginine in RKO cells).
[out] > 12 µM

[in] Would you please give the reported EC30 of CN(CCN)Cc1c[nH]nc1-c1ccc(N2CCOCC2)nc1 [Compound 20] with Mono-Methyl Arginine in RKO cells?
[out] 3.01 to 12 µM

[in] Give the observed EC30 of CCN(CCC(C)C)c1ccc(-c2n[nH]cc2CN(C)CCNC)cn1 [Compound 34] for Mono-Methyl Arginine in RKO cells.
[out] < 3 µM

[in] Quote Mono-Methyl Arginine in RKO cells EC30 for entry CN(CCN)Cc1c[nH]nc1-c1ccc(N(C)Cc2ccccc2)nc1 [Compound 23] .
[out] 3.01 to 12 µM

[in] Please tell me the measured EC30 for COc1cc(-c2n[nH]cc2CN(C)CCN)ccn1 [Compound 11] ; system: Mono-Methyl Arginine in RKO cells.
[out] 3.01 to 12 µM

[in] Under Mono-Methyl Arginine in RKO cells: report EC30 of CCN(CC)c1ccc(-c2n[nH]cc2CN(C)CCN)cn1 [Compound 24] .
[out] > 12 µM

[in] Enter EC30 (test system Mono-Methyl Arginine in RKO cells) for COc1ncc(Cl)cc1-c1n[nH]cc1CN(C)CCN [Compound 14]
[out] > 12 µM

[in] Find EC30 for COc1ncccc1-c1n[nH]cc1CN(C)CCN [Compound 15] on Mono-Methyl Arginine in RKO cells and write it down.
[out] > 12 µM

[in] Enter measured EC30, system Mono-Methyl Arginine in RKO cells, for the compound shown: CNCCN(C)Cc1c[nH]nc1-c1ccc(N(CC(C)C)CC(C)C)nc1 [Compound 31]
[out] > 12 µM

[in] Lab note: record EC30 of CCN(CC(C)C)c1ccc(-c2n[nH]cc2CN(C)CCNC)cn1 [Compound 36] tested on Mono-Methyl Arginine in RKO cells.
[out] 3.01 to 12 µM

[in] Please respond with reported EC30 (system Mono-Methyl Arginine in RKO cells) for Cc1ccncc1-c1n[nH]cc1CN(C)CCN [Compound 17] .
[out] > 12 µM

[in] Report EC30 under test system Mono-Methyl Arginine in RKO cells for CNCCN(C)Cc1c[nH]nc1-c1ccc(OCC(C)C)nc1 [Compound 35] .
[out] < 3 µM

[in] Fill in: EC30 on Mono-Methyl Arginine in RKO cells, entry CNCCN(C)Cc1c[nH]nc1-c1ccc(N(C)CC(C)C)nc1 [Compound 32]
[out] < 3 µM

[in] Report EC30 on Mono-Methyl Arginine in RKO cells for this entry: CN(CCN)Cc1c[nH]nc1-c1ccc(NCc2ccccc2)nc1 [Compound 25]
[out] 3.01 to 12 µM

[in] // output EC30; input CC(C)CNc1ccc(-c2n[nH]cc2CN(C)CCN)cn1 [Compound 26] ; system Mono-Methyl Arginine in RKO cells
[out] > 12 µM

[in] Report EC30 from Mono-Methyl Arginine in RKO cells testing of CNCCN(C)Cc1c[nH]nc1-c1ccc(N(C)CCC(C)C)nc1 [Compound 30]
[out] 3.01 to 12 µM

[in] Provide EC30, system Mono-Methyl Arginine in RKO cells, entry CN(CCN)Cc1c[nH]nc1-c1ccc(C(F)(F)F)nc1 [Compound 13]
[out] < 3 µM

[in] Enter measured EC30, system Mono-Methyl Arginine in RKO cells, for the compound shown: CN(CCN)Cc1c[nH]nc1-c1cncc(Cl)c1 [Compound 19]
[out] 3.01 to 12 µM

Provenance of the data: patent US9440950B2
